Reference source for all entries: patent US9695152B2

Listed here: items and their measured log10(EC50).
target: human CYP11B1 (Homo sapiens (Human), UniProt P15538); test: G-402 cellular enzyme assay, human CYP11B1 (cortisol release, HTRF); details: G-402 cells expressing human CYP11B1, 1 μM Deoxycortisol
Sequence (P15538 25-503): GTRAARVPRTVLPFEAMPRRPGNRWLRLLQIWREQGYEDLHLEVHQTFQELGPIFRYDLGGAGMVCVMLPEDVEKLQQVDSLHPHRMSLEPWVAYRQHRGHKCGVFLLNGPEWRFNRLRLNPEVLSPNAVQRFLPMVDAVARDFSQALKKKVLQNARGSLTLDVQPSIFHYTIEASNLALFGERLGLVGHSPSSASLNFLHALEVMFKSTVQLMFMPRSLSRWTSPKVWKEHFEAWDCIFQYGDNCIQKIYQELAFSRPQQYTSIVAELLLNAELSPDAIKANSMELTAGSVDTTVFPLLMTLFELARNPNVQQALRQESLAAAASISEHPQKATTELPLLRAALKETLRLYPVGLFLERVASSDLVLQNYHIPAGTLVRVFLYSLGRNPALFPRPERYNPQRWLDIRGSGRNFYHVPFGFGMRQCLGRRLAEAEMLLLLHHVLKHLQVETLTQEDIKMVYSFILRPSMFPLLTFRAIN
// do not treat as linear: log10 of EC50, unit µM

Examples with their reported log10(EC50) follow.
>  <COMPOUND>
CC1(C)c2cc(C#N)ccc2C(=O)N1c1cncc(NC2CCN(C(=O)c3ncccc3Cl)CC2)c1 [Example 36]

>  <MEASUREMENT_TARGET>
human CYP11B1 (Homo sapiens (Human), UniProt P15538)

>  <log10(EC50)>
0.15

$$$$
>  <COMPOUND>
C[C@@H]1c2cc(Cl)ccc2C(=O)N1c1cncc(NC2CN(S(=O)(=O)C3CC3)C2)c1 (single isomer, unassigned) [Example 29]

>  <MEASUREMENT_TARGET>
human CYP11B1 (Homo sapiens (Human), UniProt P15538)

>  <log10(EC50)>
0.76

$$$$
>  <COMPOUND>
O=C(c1ncccc1Cl)N1CC(Nc2cncc(N3CCc4cc(Cl)ccc4C3=O)c2)C1 [Example 17]

>  <MEASUREMENT_TARGET>
human CYP11B1 (Homo sapiens (Human), UniProt P15538)

>  <log10(EC50)>
0.28

$$$$

Turning now to a further compound:
Inquiry: Which log10(EC50) is reported for this compound? Cn1cc(C(=O)N2CCC(Nc3cncc(N4C(=O)c5ccc(C#N)cc5C4(C)C)c3)CC2)cn1 [Example 40]
Reply text: 0.98

* * *

target: human CYP11B1 (Homo sapiens (Human)); test: G-402 cellular enzyme assay, human CYP11B1 (cortisol release, HTRF); settings: G-402 cells expressing human CYP11B1, 1 μM Deoxycortisol
Listed here: items and their measured pEC50.
Remember, pEC50 is on a log scale: it is -log10 of the molar concentration.

Examples with their reported pEC50 follow.
>  <MOLECULE>
CC1(C)c2cc(Cl)ccc2C(=O)N1c1cncc(NC2CN(S(=O)(=O)C3CC3)C2)c1 [Example 1]

>  <pEC50>
5.90

$$$$
>  <MOLECULE>
CC1(C)c2cc(C#N)ccc2C(=O)N1c1cncc(NC2CN(S(=O)(=O)C3CC3)C2)c1 [Example 31]

>  <pEC50>
5.16

$$$$
>  <MOLECULE>
Cn1ccnc1C(=O)N1CC(Nc2cncc(N3C(=O)c4ccc(Cl)cc4C3(C)C)c2)C1 [Example 2]

>  <pEC50>
6.35

$$$$
>  <MOLECULE>
Cc1ccncc1C(=O)N1CC2(CC(Nc3cncc(N4C(=O)c5ccc(Cl)cc5C4(C)C)c3)C2)C1 [Example 19]

>  <pEC50>
4.96

$$$$
>  <MOLECULE>
O=C1c2ccc(Cl)cc2CCN1c1cncc(NC2CN(S(=O)(=O)C3CC3)C2)c1 [Example 15]

>  <pEC50>
5.02

$$$$

Inquiry: Which pEC50 is reported for this molecule? Cn1ccnc1C(=O)N1CCC(Nc2cncc(N3C(=O)c4ccc(C#N)cc4C3(C)C)c2)CC1 [Example 41]
Reply text: 6.72

Inquiry: Which pEC50 is reported for this molecule? Cc1ccncc1C(=O)N1CC(Nc2cncc(N3C(=O)c4ccc(Cl)cc4[C@H]3C)c2)C1 (single isomer, unassigned) [Example 26]
Reply text: 5.72
